Origin of measurements: patent US20240002501A1

# System name: T1, L1-CAM-Fc (UniProt P32004 20-1120, limits assumed)
# T1 construct: also called antigen L1-CAM-Fc; not shown: Fc part
# T1 sequence (P32004 20-1120 limits assumed): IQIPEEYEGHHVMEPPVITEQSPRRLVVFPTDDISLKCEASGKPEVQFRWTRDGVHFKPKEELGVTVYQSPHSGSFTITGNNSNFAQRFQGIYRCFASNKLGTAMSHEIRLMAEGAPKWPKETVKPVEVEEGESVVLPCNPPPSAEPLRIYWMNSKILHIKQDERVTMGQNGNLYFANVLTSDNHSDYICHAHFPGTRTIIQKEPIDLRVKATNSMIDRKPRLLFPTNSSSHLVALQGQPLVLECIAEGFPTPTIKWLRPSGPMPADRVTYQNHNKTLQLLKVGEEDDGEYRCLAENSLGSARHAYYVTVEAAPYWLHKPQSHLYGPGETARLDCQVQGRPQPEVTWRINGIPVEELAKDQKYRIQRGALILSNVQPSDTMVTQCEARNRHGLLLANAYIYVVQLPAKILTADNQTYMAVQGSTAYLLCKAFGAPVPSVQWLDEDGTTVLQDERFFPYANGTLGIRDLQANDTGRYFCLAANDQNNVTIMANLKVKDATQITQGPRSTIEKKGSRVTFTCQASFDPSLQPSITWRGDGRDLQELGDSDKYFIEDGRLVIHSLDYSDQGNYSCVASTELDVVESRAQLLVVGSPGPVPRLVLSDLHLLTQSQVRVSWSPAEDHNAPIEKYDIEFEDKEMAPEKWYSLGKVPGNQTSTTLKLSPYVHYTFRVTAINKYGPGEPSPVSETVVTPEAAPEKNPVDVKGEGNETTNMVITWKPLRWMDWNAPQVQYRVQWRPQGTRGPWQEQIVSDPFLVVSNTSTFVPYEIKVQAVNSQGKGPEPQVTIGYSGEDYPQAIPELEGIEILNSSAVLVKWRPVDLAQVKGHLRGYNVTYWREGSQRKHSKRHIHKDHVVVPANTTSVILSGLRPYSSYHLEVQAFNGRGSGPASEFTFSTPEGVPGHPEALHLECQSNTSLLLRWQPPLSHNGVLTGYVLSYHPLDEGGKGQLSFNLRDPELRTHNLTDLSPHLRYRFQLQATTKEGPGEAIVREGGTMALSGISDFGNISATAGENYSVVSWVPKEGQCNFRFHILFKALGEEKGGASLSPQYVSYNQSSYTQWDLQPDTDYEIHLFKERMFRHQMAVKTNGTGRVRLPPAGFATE
# Experiment notes: SPR (Biacore T100), L1-CAM-Fc immobilised on CM5 chip

Binder | Kd / nM
E71 (antibody, V domains shown, parental murine anti-L1-CAM antibody; also called mouse E71; murine E71; copies: 2 + 2) VH: QVQLQQPGDELVKPGASVKLSCKASGYTFTSYWMQWVKQRPGQGLEWIGEINPSNGRTNYNEMFKSKATLTVDKSSSTAYMQLSSLTSEDSAVYYCALYDGYYAMDYWGQGTSVTVSS VL: DIVMSQSPSSLAVSVGEKVTMSCKSSQSLLYSSNQKNYLAWYQQKPGQSPKLLIYWASTRESGVPDRFTGSGSGTDFTLTISSVKAEDLALYYCQQYHSYPFTFGSGTKLEIK | 0.314
huE71-H2L1 (antibody, human IgG1, kappa, V domains shown) VH: QVQLVQSGSELKKPGASVKLSCKASGYTFTSYWMQWVRQAPGQGLEWIGEINPSNGRTNYNEMFKSRAVLSVDTSVSTAYMQLCSLKAEDTAVYYCALYDGYYAMDYWGQGTLVTVSS VL: DIVMTQSPSSLAVSVGERVTMSCKSSQSLLYSSNQKNYLAWYQQKPGQSPKLLIYWASTRESGVPDRFSGSGSGTDFTLTISSVKAEDVALYYCQQYHSYPFTFGQGTKLEIKR | 4.26
E72-H1L1 (antibody, human IgG1, kappa, V domains shown, also called huE72 H1/L1) VH: QVQLVQPGAEVVKPGASVKLSCKASGYTFTGYWMHWVKQAPGQGLEWIGEINPSNGRTNYNERFKSKATLTVDKSITTAFMELSRLRSDDTAVYFCARDYYGTSYNFDYWGQGTLLTVSS VL: DIQMTQSSSSFSVSVGDRVTITCKANEDINNRLAWYQQKPGKSPRLLISGATNLVTGVPSRFSGSGSGTDYTLTISSLQAEDFATYYCQQYWSTPFTFGQGTELEIKR | 0.0893
